- Tested on: B16F10 cells
- EXPERIMENTAL DETAILS: Cytotoxicity test (MTT)
- Format: cell-based, mouse
- STUDY CONDITIONS: 0.1 ppm, unit assumed
ASSAY READOUT: Cell viability (MTT, absorbance at 570 nm), Average (%)
State just the number; it will be interpreted in %.

Summary line: OC[C@H]1O[C@@H](Oc2ccc(O)cc2)[C@H](O)[C@@H](O)[C@@H]1O , B16F10 cells, reported Cell viability (MTT, absorbance at 570 nm), Average = 97.6

* * *

- Test system: B16F10 cells
- EXPERIMENTAL DETAILS: Cytotoxicity test (MTT)
- Format: cell-based, mouse
- STUDY CONDITIONS: 100 ppm, unit assumed
ASSAY READOUT: Cell viability (MTT, absorbance at 570 nm), Average

Record OC[C@H]1O[C@@H](Oc2ccc(O)cc2)[C@H](O)[C@@H](O)[C@@H]1O [Arbutin] . Reported Cell viability (MTT, absorbance at 570 nm), Average: 57.7%

* * *

- Test system: B16F10 cells
- EXPERIMENTAL DETAILS: Cytotoxicity test (MTT)
- Format: cell-based, mouse
- STUDY CONDITIONS: 10 ppm, unit assumed
ASSAY READOUT: Cell viability (MTT, absorbance at 570 nm), Average (%)
State just the number; it will be interpreted in %.

Record OC[C@H]1O[C@@H](Oc2ccc(O)cc2)[C@H](O)[C@@H](O)[C@@H]1O [Arbutin] . Reported Cell viability (MTT, absorbance at 570 nm), Average: 89.3

* * *

- Test system: B16F10 cells
- EXPERIMENTAL DETAILS: Cytotoxicity test (MTT)
- Type: cell-based, mouse
- STUDY CONDITIONS: 50 ppm, unit assumed
ASSAY READOUT: Cell viability (MTT, absorbance at 570 nm), Average (%)
State just the number; it will be interpreted in %.

Record OC[C@H]1O[C@@H](Oc2ccc(O)cc2)[C@H](O)[C@@H](O)[C@@H]1O . Reported Cell viability (MTT, absorbance at 570 nm), Average: 82.4

* * *

- Tested on: B16F10 cells
- EXPERIMENTAL DETAILS: Cytotoxicity test (MTT)
- Format: cell-based, mouse
- STUDY CONDITIONS: 1 ppm, unit assumed
ASSAY READOUT: Cell viability (MTT, absorbance at 570 nm), Average (%)
State just the number; it will be interpreted in %.

Summary line: OC[C@H]1O[C@@H](Oc2ccc(O)cc2)[C@H](O)[C@@H](O)[C@@H]1O , B16F10 cells, reported Cell viability (MTT, absorbance at 570 nm), Average = 97
